Source of measurements: paper PMC3855329

- target.under.test: MAP3K1 activated murine MAP2K4 (MAP2K4-AC) (Mus musculus, UniProt P47809)
- Construct: purchased Millipore 14-377
- experiment.summary: In vitro MAP2K4 kinase assay, p38α MAPK (K53A) substrate, Western blot densitometry
- Assay type: biochemical
property: pIC50
Note on units: pIC50 is unitless, being -log10 of a concentration expressed in mol/L.

Quick check: pIC50 of CC(C)(C)n1nc(-c2ccc(Cl)cc2)c2c(N)ncnc21 ?
4.40

Tell me the measured pIC50 of COc1cc(-c2oc3cc(O)ccc3c(=O)c2O)ccc1O [Geraldol, 3,4′,7-Trihydroxy-3′-methoxyflavone] , please.
6.10

Quick check: pIC50 of O=C1c2ccccc2C(=O)c2c1ccc(O)c2O [Alizarin, 1,2-dihydroxyanthraquinone] ?
6.05

// query pIC50 value for entry Cc1ccc(-c2nn(C(C)(C)C)c3ncnc(N)c23)cc1
4.86

----------
Task for the reader: assign each of the following molecules its reported pIC50.
- target.under.test: MAP3K1 activated murine MAP2K4 (MAP2K4-AC) (Mus musculus, UniProt P47809)
- Construct: purchased Millipore 14-377
- experiment.summary: In vitro MAP2K4 kinase assay, p38α MAPK (K53A) substrate, Western blot densitometry
- Format: biochemical
- run.parameters: kinase dead p38α MAPK-K53A substrate; 1 µM ATP; mean (95% confidence intervals); read-out: IC50-p38
The read-out pIC50 is expressed as -log10 of concentration in moles per litre.

Requested read-out pIC50, target or system MAP3K1 activated murine MAP2K4 (MAP2K4-AC) (Mus musculus, UniProt P47809), entry COc1cc(/C=C(\C#N)C(N)=O)cc(CSc2nc3ccccc3s2)c1O
4.55

// lookup pIC50 | system=MAP3K1 activated murine MAP2K4 (MAP2K4-AC) (Mus musculus, UniProt P47809) | key= O=c1cc(-c2ccc(O)cc2)oc2cc(O)cc(O)c12
4.80

Notebook: pull reported pIC50 for MAP3K1 activated murine MAP2K4 (MAP2K4-AC) (Mus musculus, UniProt P47809), entry Nc1ncnc2c1c(I)cn2[C@@H]1O[C@H](CO)[C@@H](O)[C@H]1O
6.70

----------
- target.under.test: MAP3K1 activated murine MAP2K4 (MAP2K4-AC) (Mus musculus)
- Construct: purchased Millipore 14-377
- Sequence (P47809 1-397): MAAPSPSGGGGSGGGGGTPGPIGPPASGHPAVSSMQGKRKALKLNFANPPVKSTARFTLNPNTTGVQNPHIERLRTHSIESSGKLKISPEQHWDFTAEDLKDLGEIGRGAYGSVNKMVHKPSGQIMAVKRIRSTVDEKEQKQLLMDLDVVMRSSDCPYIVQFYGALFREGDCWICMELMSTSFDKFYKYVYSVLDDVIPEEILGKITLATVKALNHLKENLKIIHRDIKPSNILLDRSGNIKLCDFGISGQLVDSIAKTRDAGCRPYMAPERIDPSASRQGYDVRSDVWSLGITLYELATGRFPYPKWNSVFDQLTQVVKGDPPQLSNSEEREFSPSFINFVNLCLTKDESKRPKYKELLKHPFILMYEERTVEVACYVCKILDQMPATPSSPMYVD
- experiment.summary: In vitro MAP2K4 kinase assay, JNK1 (K55M) substrate, Western blot densitometry
- Assay type: biochemical
- run.parameters: kinase dead JNK1-K55M substrate; 1 µM ATP; mean (95% confidence intervals); read-out: IC50-JNK1
property: IC50 (nM)
// note: answer is a bare numeric in nM

Report IC50 for O=C1c2ccccc2-c2n[nH]c3cccc1c23 please.
700

Fill blank: measured IC50 of the compound Nc1ncnc2c1c(I)cn2[C@@H]1O[C@H](CO)[C@@H](O)[C@H]1O is ____.
2800

Can you share its IC50? I mean this compound: COc1cc(/C=C(\C#N)C(N)=O)cc(CSc2nc3ccccc3s2)c1O
25000

Sample O=c1cc(-c2ccc(O)cc2)oc2cc(O)cc(O)c12 — what was its IC50?
20100

Can you share its IC50? I mean this compound: O=c1c(O)c(-c2ccc(O)c(O)c2)oc2cc(O)cc(O)c12
1700
